Hello, the source for this data is paper PMC8288134, in case you need it.

System: CAKI-1
ASSAY PROCEDURE: NCI antitumor screen (SRB)
Format: cell-based
CONDITION SUMMARY: Homo sapiens, one dose 10 µM, read-out: Growth inhibition percentage (GI%)
Measured inhibition at 10 µM, listed per entry.
READOUT: inhibition at 10 µM (%)

COc1ccc(C=NNC(=O)c2ccc(S(C)(=O)=O)cc2)cc1OC [Compound 21]: 11
CS(=O)(=O)c1ccc(C(=O)NN=Cc2ccc(Cl)c(Cl)c2)cc1 [Compound 18]: 10.1
CS(=O)(=O)c1ccc(C(=O)NN=Cc2cccc3ccccc23)cc1 [Compound 6]: 32.8
CS(=O)(=O)c1ccc(C(=O)N/N=C/c2ccccc2O)cc1 [Compound 16]: 65.1
CS(=O)(=O)c1ccc(C(=O)NN=Cc2ccccc2F)cc1 [Compound 14]: 11.7

---

Measured inhibition at 10 µM, listed per entry.
System: BT-549
ASSAY PROCEDURE: NCI antitumor screen (SRB)
Type: cell-based
CONDITION SUMMARY: Homo sapiens, one dose 10 µM, read-out: Growth inhibition percentage (GI%)
READOUT: inhibition at 10 µM (%)

CS(=O)(=O)c1ccc(C(=O)N/N=C/c2ccccc2O)cc1: 47
CCN(CC)c1ccc(/C=N/NC(=O)c2ccc(S(C)(=O)=O)cc2)c(O)c1: 69.3
O=c1[nH]cc(F)c(=O)[nH]1 [Compound 5-Fu, 5-fluorouracil, reference compound]: 62.2
CS(=O)(=O)c1ccc(C(=O)NN=Cc2cccc3ccccc23)cc1: 12.4

---

Tested on: UO-31
ASSAY PROCEDURE: NCI antitumor screen (SRB)
Type: cell-based, human
CONDITION SUMMARY: Homo sapiens; UO-31; one dose 10 µM; read-out: Growth inhibition percentage (GI%)
READOUT: inhibition at 10 µM (%)

Cc1ccc(C=NNC(=O)c2ccc(S(C)(=O)=O)cc2)cc1: 12.3
CS(=O)(=O)c1ccc(C(=O)N/N=C/c2ccccc2O)cc1: 82
CS(=O)(=O)c1ccc(C(=O)NN=Cc2cccnc2)cc1: 16.3
CS(=O)(=O)c1ccc(C(=O)NN=Cc2cccc3ccccc23)cc1: 21.5
CN(C)c1ccc(C=NNC(=O)c2ccc(S(C)(=O)=O)cc2)cc1: 11.2

---

Tested on: ACHN
ASSAY PROCEDURE: NCI antitumor screen (SRB)
Type: cell-based
CONDITION SUMMARY: Homo sapiens, one dose 10 µM, read-out: Growth inhibition percentage (GI%)
READOUT: inhibition at 10 µM

CS(=O)(=O)c1ccc(C(=O)NN=Cc2cccc3ccccc23)cc1: < 10%
Cc1ccc(C=NNC(=O)c2ccc(S(C)(=O)=O)cc2)cc1: < 10%
Cc1ccc(NC(=O)c2ccc(CN3CCN(C)CC3)cc2)cc1Nc1nccc(-c2cccnc2)n1 [Imatinib, imatinib, reference compound]: < 10%

---

Test system: NCI-H522
ASSAY PROCEDURE: NCI antitumor screen (SRB)
Type: cell-based
CONDITION SUMMARY: Homo sapiens, NCI-H522, read-out: Growth inhibition percentage (GI%)
Assign class by inhibition at 10 µM: not lower than 20% means yes; lower than 20% means no.

CS(=O)(=O)c1ccc(C(=O)NN=Cc2ccccc2F)cc1 [Compound 14]: yes
CS(=O)(=O)c1ccc(C(=O)NN=Cc2cccnc2)cc1 [Compound 5]: no
CS(=O)(=O)c1ccc(C(=O)NN=Cc2ccc(Cl)c(Cl)c2)cc1 [Compound 18]: no
COc1ccc(C=NNC(=O)c2ccc(S(C)(=O)=O)cc2)cc1OC [Compound 21]: no
CN(C)c1ccc(C=NNC(=O)c2ccc(S(C)(=O)=O)cc2)cc1 [Compound 12]: yes
